# Tested on: rodent lifetime carcinogenesis bioassay, tumor incidence TD50
# test_method_notes: carcinogenic potency in animals, long-term in vivo studies, CPDB compilation (AID 1745844)
# condition_set: mouse; strain B6C3F1; males; in feed; site: lung; lesion: alveolar-cell carcinoma; dosed 96 weeks; study length 96 weeks
measure_name: TD50
Quote the value and follow it with the unit of measurement.

Request: Return the recorded TD50 value; entry: O=C(O)C=Cc1ccc(O)c(O)c1
Result: 41300 mg/kg/day

----------
# Test system: rodent lifetime carcinogenesis bioassay, tumor incidence TD50
# test_method_notes: carcinogenic potency in animals, long-term in vivo studies, CPDB compilation (AID 1745844)
# condition_set: rat; strain Harlan; males; in feed; site: duodenum; lesion: adenocarcinoma; dosed 72 weeks; study length 94 weeks
measure_name: TD50

Request: Return the recorded TD50 value; entry: C#CC(OC(N)=O)(c1ccccc1)c1ccc(Cl)cc1 (stereo unspecified)
Result: 24.9 mg/kg/day

----------
# System: rodent lifetime carcinogenesis bioassay, tumor incidence TD50
# test_method_notes: carcinogenic potency in animals, long-term in vivo studies, CPDB compilation (AID 1745844)
# condition_set: rat; strain F344/DuCrj; males; in feed; site: skin; lesion: squamous-cell papilloma; dosed 61 weeks; study length 61 weeks
measure_name: TD50 (mg/kg/day)
Please respond with the number in mg/kg/day and leave the unit unwritten.

Request: Return the recorded TD50 value; entry: Cc1cnc2ccc3c(nc(N)n3C)c2n1
Result: 73.5

----------
# Test system: rodent lifetime carcinogenesis bioassay, tumor incidence TD50
# test_method_notes: carcinogenic potency in animals, long-term in vivo studies, CPDB compilation (AID 1745844)
# condition_set: mouse; strain Swiss albino; females; by gavage; site: lung; lesion: adenocarcinoma; dosed 52 weeks; study length 109 weeks
measure_name: TD50 (mg/kg/day)
Please respond with the number in mg/kg/day and leave the unit unwritten.

Request: Return the recorded TD50 value; entry: CC=NN(C)C=O
Result: 19.6

----------
# System: rodent lifetime carcinogenesis bioassay, tumor incidence TD50
# test_method_notes: carcinogenic potency in animals, long-term in vivo studies, CPDB compilation (AID 1745844)
# condition_set: rat; strain Fischer 344; males; in feed; site: mammary gland; lesion: fibroadenoma; dosed 104 weeks; study length 105 weeks
measure_name: TD50
Quote the value and follow it with the unit of measurement.

Request: Return the recorded TD50 value; entry: OCC(CO)(CBr)CBr
Result: 275 mg/kg/day

----------
# System: rodent lifetime carcinogenesis bioassay, tumor incidence TD50
# test_method_notes: carcinogenic potency in animals, long-term in vivo studies, CPDB compilation (AID 1745844)
# condition_set: mouse; strain B6C3F1; females; in feed; site: pituitary gland; lesion: adenoma, NOS; dosed 104 weeks; study length 105 weeks
measure_name: TD50

Request: Please respond with reported TD50 (system rodent lifetime carcinogenesis bioassay, tumor incidence TD50) for C[C@H]1CCCC(=O)CCC/C=C/c2cc(O)cc(O)c2C(=O)O1 .
Result: 37.4 mg/kg/day

----------
# System: rodent lifetime carcinogenesis bioassay, tumor incidence TD50
# test_method_notes: carcinogenic potency in animals, long-term in vivo studies, CPDB compilation (AID 1745844)
# condition_set: hamster; strain Syrian Golden; males; in drinking water; site: liver; lesion: hepatoma; dosed 84 weeks; study length 84 weeks
The source made the active and inactive calls. How the calls were made is not given here.
measure_name: TD50

Request: Return the recorded TD50 value; entry: NNCCO
Result: 84.4 mg/kg/day (inactive)

----------
# Test system: rodent lifetime carcinogenesis bioassay, tumor incidence TD50
# test_method_notes: carcinogenic potency in animals, long-term in vivo studies, CPDB compilation (AID 1745844)
# condition_set: rat; strain Fischer 344; females; in feed; site: stomach, glandular; lesion: carcinoid tumor, malignant; dosed 104 weeks; study length 104 weeks
measure_name: TD50

Request: Return the recorded TD50 value; entry: CC(C)(Oc1ccc(C2CC2(Cl)Cl)cc1)C(=O)O (stereo unspecified)
Result: 531 mg/kg/day

----------
# System: rodent lifetime carcinogenesis bioassay, tumor incidence TD50
# test_method_notes: carcinogenic potency in animals, long-term in vivo studies, CPDB compilation (AID 1745844)
# condition_set: mouse; strain B6C3F1; males; in feed; site: liver; lesion: hyperplastic nodule; dosed 96 weeks; study length 96 weeks
measure_name: TD50 (mg/kg/day)
Please respond with the number in mg/kg/day and leave the unit unwritten.

Request: Return the recorded TD50 value; entry: O=c1cc[nH]c(=O)[nH]1
Result: 48800

----------
# Tested on: rodent lifetime carcinogenesis bioassay, tumor incidence TD50
# test_method_notes: carcinogenic potency in animals, long-term in vivo studies, CPDB compilation (AID 1745844)
# condition_set: hamster; strain Syrian Golden; females; in drinking water; site: gall bladder; lesion: several types; types named in the paper; dosed 102 weeks; study length 102 weeks
measure_name: TD50

Request: Please respond with reported TD50 (system rodent lifetime carcinogenesis bioassay, tumor incidence TD50) for CN(N)C=O .
Result: 29.1 mg/kg/day

----------
# System: rodent lifetime carcinogenesis bioassay, tumor incidence TD50
# test_method_notes: carcinogenic potency in animals, long-term in vivo studies, CPDB compilation (AID 1745844)
# condition_set: rat; strain Fischer 344; males; in drinking water; site: adrenal medulla; lesion: pheochromocytoma, benign; dosed 104 weeks; study length 104 weeks
measure_name: TD50 (mg/kg/day)
Please respond with the number in mg/kg/day and leave the unit unwritten.

Request: Return the recorded TD50 value; entry: Cc1ccc(S(=O)(=O)Oc2ccc(N=Nc3ccc(-c4ccc(N=Nc5c(O)ccc6cc(S(=O)(=O)O)cc(S(=O)(=O)O)c56)c(C)c4)cc3C)cc2)cc1
Result: 6.69

----------
# System: rodent lifetime carcinogenesis bioassay, tumor incidence TD50
# test_method_notes: carcinogenic potency in animals, long-term in vivo studies, CPDB compilation (AID 1745844)
# condition_set: rat; strain Fischer 344; females; by gavage; site: pituitary gland, anterior; lesion: adenoma, NOS + chromophobe adenoma; dosed 100 weeks; study length 104 weeks
measure_name: TD50 (mg/kg/day)
Please respond with the number in mg/kg/day and leave the unit unwritten.

Request: Return the recorded TD50 value; entry: CC(C)=CCl
Result: 101

----------
# Test system: rodent lifetime carcinogenesis bioassay, tumor incidence TD50
# test_method_notes: carcinogenic potency in animals, long-term in vivo studies, CPDB compilation (AID 1745844)
# condition_set: rat; strain Sprague-Dawley; females; i.p.; site: brain; lesion: olfactory neuroblastoma; dosed 26 weeks; study length 80 weeks
measure_name: TD50

Request: Please respond with reported TD50 (system rodent lifetime carcinogenesis bioassay, tumor incidence TD50) for CNNCc1ccc(C(=O)NC(C)C)cc1 .
Result: 0.361 mg/kg/day

----------
# Test system: rodent lifetime carcinogenesis bioassay, tumor incidence TD50
# test_method_notes: carcinogenic potency in animals, long-term in vivo studies, CPDB compilation (AID 1745844)
# condition_set: rat; strain Fischer 344; males; in feed; site: colon + rectum; lesion: adenocarcinoma, NOS + adenoma, NOS; dosed 78 weeks; study length 104 weeks
measure_name: TD50

Request: Return the recorded TD50 value; entry: Nc1ccc(N=Nc2ccccc2)c(N)n1
Result: 303 mg/kg/day

----------
# Tested on: rodent lifetime carcinogenesis bioassay, tumor incidence TD50
# test_method_notes: carcinogenic potency in animals, long-term in vivo studies, CPDB compilation (AID 1745844)
# condition_set: mouse; strain Swiss albino; females; in drinking water; site: blood vessels; lesion: several types; types named in the paper; dosed 94 weeks; study length 94 weeks
measure_name: TD50

Request: Return the recorded TD50 value; entry: CCCCCNN
Result: 35.5 mg/kg/day

----------
# Test system: rodent lifetime carcinogenesis bioassay, tumor incidence TD50
# test_method_notes: carcinogenic potency in animals, long-term in vivo studies, CPDB compilation (AID 1745844)
# condition_set: rat; strain Sprague-Dawley; females; by gavage; site: any site (literature study); lesion: several types; types named in the paper; dosed 52 weeks; study length 104 weeks
measure_name: TD50 (mg/kg/day)
Please respond with the number in mg/kg/day and leave the unit unwritten.

Request: Return the recorded TD50 value; entry: C=Cc1ccccc1
Result: 12

----------
# Test system: rodent lifetime carcinogenesis bioassay, tumor incidence TD50
# test_method_notes: carcinogenic potency in animals, long-term in vivo studies, CPDB compilation (AID 1745844)
# condition_set: rat; strain Fischer 344; males; by gavage; site: pancreas; lesion: acinar-cell adenocarcinoma; dosed 94 weeks; study length 104 weeks
measure_name: TD50 (mg/kg/day)
Please respond with the number in mg/kg/day and leave the unit unwritten.

Request: Return the recorded TD50 value; entry: ClCC(Cl)CCl
Result: 51.5

----------
# System: rodent lifetime carcinogenesis bioassay, tumor incidence TD50
# test_method_notes: carcinogenic potency in animals, long-term in vivo studies, CPDB compilation (AID 1745844)
# condition_set: rat; strain Osborne-Mendel; males; by gavage; site: any site (literature study); lesion: several types; types named in the paper; dosed 69 weeks; study length 111 weeks
The source made the active and inactive calls. The rule behind the calls is not given here.
measure_name: TD50

Request: Please respond with reported TD50 (system rodent lifetime carcinogenesis bioassay, tumor incidence TD50) for O=S1(=O)CC=CC1 .
Result: 30.8 mg/kg/day (inactive)
